molecular target: Low Density Lipoprotein Receptor (LDLR), recombinant (UniProt P01130 22-788); test: SPR; HBS + 0.05% P20
pKd: −log10 of the molar value.
Entries annotated with measured pKd

{"columns": ["binder", "pKd"],
 "data": [
  ["T-114 (peptide) peptide: LKDFGERVARALREQFEDLGQSTEELRVRLASHLRKLRKRLLRDADDLQKRLAVYQA", 5.90],
  ["LARHLRKLRKRLARSLVSQYFQTVTDYGKDLM [T-066]", 5.62],
  ["HLRRLRRRLLRDGDKLQDRLAEYQARAKEAFDR [T-041]", 5.13],
  ["T-120 (peptide) peptide: DVKRLLKELTEAMAELARKAEDIRGNLDQYFRKVFAMLGQSTEELRVRLASHLRKLRKRLLRDADDLQKRLAVYQA", 4.93]
]}
